Tested on: Enterococcus faecium
Experiment: Antibacterial activity against vancomycin-susceptible Enterococcus faecium clinical isolate by broth microdilution method
Format: functional
Readout Kind: MIC50

Prompt: Provide MIC50 value for the following molecule: CCCCCCCCCCNCCN[C@@]1(C)C[C@H](O[C@H]2[C@H](Oc3c4cc5cc3Oc3ccc(cc3Cl)[C@@H](O)[C@@H](NC(=O)[C@@H](CC(C)C)NC)C(=O)N[C@@H](CC(N)=O)C(=O)N[C@H]5C(=O)N[C@H]3C(=O)N[C@H](C(=O)N[C@H](C(=O)O)c5cc(O)c(CNCP(=O)(O)O)c(O)c5-c5cc3ccc5O)[C@H](O)c3ccc(c(Cl)c3)O4)O[C@H](CO)[C@@H](O)[C@@H]2O)O[C@@H](C)[C@H]1O [TELAVANCIN]
Completion: 0.12 µg/mL

Prompt: Provide MIC50 value for the following molecule: CN[C@H](CC(C)C)C(=O)N[C@H]1C(=O)N[C@@H](CC(N)=O)C(=O)N[C@H]2C(=O)N[C@H]3C(=O)N[C@H](C(=O)N[C@H](C(=O)O)c4cc(O)cc(O)c4-c4cc3ccc4O)[C@H](O)c3ccc(c(Cl)c3)Oc3cc2cc(c3O[C@@H]2O[C@H](CO)[C@@H](O)[C@H](O)[C@H]2O[C@H]2C[C@](C)(N)[C@H](O)[C@H](C)O2)Oc2ccc(cc2Cl)[C@H]1O [VANCOMYCIN]
Completion: ≤ 0.5 µg/mL

Prompt: Provide MIC50 value for the following molecule: CCCCCCCCCC(=O)N[C@@H](Cc1c[nH]c2ccccc12)C(=O)N[C@H](CC(N)=O)C(=O)N[C@@H](CC(=O)O)C(=O)N[C@@H]1C(=O)NCC(=O)N[C@@H](CCCN)C(=O)N[C@@H](CC(=O)O)C(=O)N[C@H](C)C(=O)N[C@@H](CC(=O)O)C(=O)NCC(=O)N[C@H](CO)C(=O)N[C@@H]([C@H](C)CC(=O)O)C(=O)N[C@@H](CC(=O)c2ccccc2N)C(=O)O[C@@H]1C
Completion: 2 µg/mL

Prompt: Provide MIC50 value for the following molecule: CC1(C)S[C@@H]2[C@H](NC(=O)[C@H](N)c3ccccc3)C(=O)N2[C@H]1C(=O)O [AMPICILLIN]
Completion: 128 µg/mL

Prompt: Provide MIC50 value for the following molecule: CC(=O)NC[C@H]1CN(c2ccc(N3CCOCC3)c(F)c2)C(=O)O1 [LINEZOLID]
Completion: 2 µg/mL

* * *

Test system: Streptococcus oralis
Test: Antibacterial activity against Streptococcus oralis clinical isolate by broth microdilution method
Format: functional
Readout Kind: MIC50 (µg/mL)
Please respond with the number in µg/mL and leave the unit unwritten.

Prompt: Provide MIC50 value for the following compound: CCCCCCCCCCNCCN[C@@]1(C)C[C@H](O[C@H]2[C@H](Oc3c4cc5cc3Oc3ccc(cc3Cl)[C@@H](O)[C@@H](NC(=O)[C@@H](CC(C)C)NC)C(=O)N[C@@H](CC(N)=O)C(=O)N[C@H]5C(=O)N[C@H]3C(=O)N[C@H](C(=O)N[C@H](C(=O)O)c5cc(O)c(CNCP(=O)(O)O)c(O)c5-c5cc3ccc5O)[C@H](O)c3ccc(c(Cl)c3)O4)O[C@H](CO)[C@@H](O)[C@@H]2O)O[C@@H](C)[C@H]1O
Completion: 0.03

Prompt: Provide MIC50 value for the following compound: CN[C@H](CC(C)C)C(=O)N[C@H]1C(=O)N[C@@H](CC(N)=O)C(=O)N[C@H]2C(=O)N[C@H]3C(=O)N[C@H](C(=O)N[C@H](C(=O)O)c4cc(O)cc(O)c4-c4cc3ccc4O)[C@H](O)c3ccc(c(Cl)c3)Oc3cc2cc(c3O[C@@H]2O[C@H](CO)[C@@H](O)[C@H](O)[C@H]2O[C@H]2C[C@](C)(N)[C@H](O)[C@H](C)O2)Oc2ccc(cc2Cl)[C@H]1O
Completion: 0.5

Prompt: Provide MIC50 value for the following compound: CC(=O)NC[C@H]1CN(c2ccc(N3CCOCC3)c(F)c2)C(=O)O1
Completion: 1

Prompt: Provide MIC50 value for the following compound: C[C@H]1COc2c(N3CCN(C)CC3)c(F)cc3c(=O)c(C(=O)O)cn1c23.C[C@H]1COc2c(N3CCN(C)CC3)c(F)cc3c(=O)c(C(=O)O)cn1c23.O
Completion: 0.5

Prompt: Provide MIC50 value for the following compound: CCCCCCCCCC(=O)N[C@@H](Cc1c[nH]c2ccccc12)C(=O)N[C@H](CC(N)=O)C(=O)N[C@@H](CC(=O)O)C(=O)N[C@@H]1C(=O)NCC(=O)N[C@@H](CCCN)C(=O)N[C@@H](CC(=O)O)C(=O)N[C@H](C)C(=O)N[C@@H](CC(=O)O)C(=O)NCC(=O)N[C@H](CO)C(=O)N[C@@H]([C@H](C)CC(=O)O)C(=O)N[C@@H](CC(=O)c2ccccc2N)C(=O)O[C@@H]1C
Completion: 0.25
